- target: Phosphodiesterase 1 (Homo sapiens, UniProt P54750+Q01064+Q14123)
- assayName: Antagonistic potency against calmodulin-dependent cyclic AMP phosphodiesterase relative to Idoxifene
- Assay type: functional
- experimentalParameters: Canis lupus familiaris
Respond with met for Relative potency values of 2 and above, not met for values below.

Check out these entries, answers already filled in.
- givenSmiles: "CC/C(=C(\\c1ccc(I)cc1)c1ccc(OCCCN2CCCC2)cc1)c1ccccc1"
  target: "Phosphodiesterase 1 (Homo sapiens, UniProt P54750+Q01064+Q14123)"
  assignedCategory: "not met"
- givenSmiles: "CC/C(=C(\\c1ccc(I)cc1)c1ccc(OCCCCCCN2CCCC2)cc1)c1ccccc1"
  target: "Phosphodiesterase 1 (Homo sapiens, UniProt P54750+Q01064+Q14123)"
  assignedCategory: "met"
- givenSmiles: "CC/C(=C(\\c1ccc(I)cc1)c1ccc(OCCCCCCCCCN2CCCC2)cc1)c1ccccc1"
  target: "Phosphodiesterase 1 (Homo sapiens, UniProt P54750+Q01064+Q14123)"
  assignedCategory: "met"

Inquiry: Does CC/C(=C(\c1ccc(I)cc1)c1ccc(OCCCCCCCN2CCCC2)cc1)c1ccccc1 have a reported Relative potency of at least 2?
Reply text: met

Inquiry: Does CC/C(=C(\c1ccc(I)cc1)c1ccc(OCCCCCN2CCCC2)cc1)c1ccccc1 have a reported Relative potency of at least 2?
Reply text: not met

Inquiry: Does CC/C(=C(\c1ccc(I)cc1)c1ccc(OCCCCCCCCN2CCCC2)cc1)c1ccccc1 have a reported Relative potency of at least 2?
Reply text: met

Inquiry: Does CC/C(=C(\c1ccc(I)cc1)c1ccc(OCCCCCCCCCCN2CCCC2)cc1)c1ccccc1 have a reported Relative potency of at least 2?
Reply text: not met

Inquiry: Does CC/C(=C(\c1ccc(I)cc1)c1ccc(OCCCCN2CCCC2)cc1)c1ccccc1 have a reported Relative potency of at least 2?
Reply text: not met
